Property: Ratio OD(Variant)/OD(WT); scope: individual binders
tgt: HRgpA-6H (Porphyromonas gingivalis) (UniProt P28784)
assay summary: ELISA on coated HRgpA-6H
// print number alone

KB001 mouse Fab FASEBA VH S61N (Fab, V domains shown) VH: EVQLKQSGPGLVAPSQSLSITCTVSGFSLSIYSVHWVRQPPGKGLEWLGMIWGGGSSDYNNALKSRLSISKDNSKSQVFLKMNSLQTDDTAMYYCARNGNFYAMDYWGQGTSVTVSS VL: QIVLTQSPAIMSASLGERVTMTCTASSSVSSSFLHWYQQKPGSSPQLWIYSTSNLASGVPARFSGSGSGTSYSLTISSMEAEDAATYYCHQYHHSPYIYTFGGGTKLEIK | 1.09

# get_value(readout='Ratio OD(Variant)/OD(WT)', item= KB001 mouse Fab FASEBA VH Y106N (Fab, V domains shown) VH: EVQLKQSGPGLVAPSQSLSITCTVSGFSLSIYSVHWVRQPPGKGLEWLGMIWGGGSSDYNSALKSRLSISKDNSKSQVFLKMNSLQTDDTAMYYCARNGNFYAMDNWGQGTSVTVSS VL: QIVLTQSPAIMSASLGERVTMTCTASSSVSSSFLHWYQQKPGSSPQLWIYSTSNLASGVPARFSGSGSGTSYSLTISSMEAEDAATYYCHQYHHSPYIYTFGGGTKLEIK )
1.03
